QUANTITY: melting point (°C)

O=[N+]([O-])c1ccc(/N=N/c2ccc(O)c(/C=N/N=C/c3cc(/N=N/c4ccc([N+](=O)[O-])cc4[N+](=O)[O-])ccc3O)c2)c([N+](=O)[O-])c1 [Compound 5a] | 275
O=[N+]([O-])c1ccc(/N=N/c2ccc(O)c(/C=N/N=C/c3cc(/N=N/c4ccc([N+](=O)[O-])cc4)ccc3O)c2)cc1 [Compound 5g] | 215
Oc1ccc(/N=N/c2ccccc2Cl)cc1/C=N/N=C/c1cc(/N=N/c2ccccc2Cl)ccc1O [Compound 5c] | 195
NS(=O)(=O)c1ccc(/N=N/c2ccc(O)c(/C=N/N=C/c3cc(/N=N/c4ccc(S(N)(=O)=O)cc4)ccc3O)c2)cc1 [Compound 5e] | 225
Oc1ccc(/N=N/c2cccc(Cl)c2Cl)cc1/C=N/N=C/c1cc(/N=N/c2cccc(Cl)c2Cl)ccc1O [Compound 5b] | 222
Oc1ccc(/N=N/c2cccc(Cl)c2)cc1/C=N/N=C/c1cc(/N=N/c2cccc(Cl)c2)ccc1O [Compound 5h] | 210
Oc1ccc(/N=N/c2ccc(Cl)cc2)cc1/C=N/N=C/c1cc(/N=N/c2ccc(Cl)cc2)ccc1O [Compound 5d] | 205
O=S(=O)([O-])c1ccc(/N=N/c2ccc(O)c(/C=N/N=C/c3cc(/N=N/c4ccc(S(=O)(=O)[O-])cc4)ccc3O)c2)cc1.[Na+].[Na+] [Compound 5f] | 240
